Test system: ACHN
Assay: NCI tumour cell line growth inhibition, 48 h
The source made the active and inactive calls. Rule as the data show it: active = GI50 up to about 1.1 µM and inactive = higher.
Recorded GI50, one value per entry.

Q: Quick one: give measured GI50 for COc1cccc(OC)c1C1ON=C(c2ccccc2)N1C12CC3CC(CC(C3)C1)C2 (stereo not given)
A: 35.3 µM (inactive)

Q: Name the recorded GI50 of the compound listed here: Oc1c(/N=N\c2ccccc2)c2cccc3ccc4cccc1c4c32
A: 26.8 µM (inactive)

Q: Supply measured GI50 of COC(=O)/C=C(\S/C=C(/c1ccccc1)N1CCn2c(C(=O)c3ccccc3)c(C(=O)OC)c(C(=O)OC)c21)C(=O)OC in your reply.
A: 3.34 µM (inactive)

Q: Output GI50 of N#Cc1c(-c2ccc([N+](=O)[O-])cc2)c2c([nH]c1=O)-c1ccccc1CCC2
A: 37.5 µM (inactive)

Q: Look up and report measured GI50 for this entry: NC1=NS(=O)(=O)Nc2nc(-c3ccccc3)c(-c3ccccc3)nc21
A: > 100 µM (inactive)

Further cases:
Q: Please look at this compound and report its GI50: CN(/N=C/c1cccs1)c1ccc(Cl)cc1[N+](=O)[O-]
A: 40 µM (inactive)

Q: Write down GI50 measured for item N=c1nc(N)nc(N)n1-c1ccc(S(N)(=O)=O)cc1
A: > 100 µM (inactive)

====

Test system: CCRF-CEM
Test: NCI tumour cell line growth inhibition, 48 h
The source made the active and inactive calls. Cut-off read from the data, not from the text of the source: active = GI50 up to about 1.1 µM and inactive = higher.
Returns: one label drawn from active, inactive

Q: Check the results log: what was the call for Clc1ccc(-c2nnc(-c3cccc4ccccc34)o2)cc1Cl ?
A: inactive

Further cases:
Q: # outcome recorded in this test, key = O=C(Nc1ccccc1)c1cc2c(cc1Cl)SC(NNCCO)=NS2(=O)=O
A: inactive

Q: Called result for Clc1ccc(Cl)c2[s+]snc12
A: inactive

Q: Check the results log: what was the call for CC1CN=C(N(Cc2ccc(F)cc2)C(=O)Nc2ccc(Cl)cc2)S1 (centres undefined) ?
A: inactive

Q: Per the records of this test, what outcome belongs to CC12CC(OC(=O)[C@]1(C)O)[C@@H]([C@]1(O)CC[C@H]3[C@@H]4C[C@H]5O[C@]56[C@@H](O)C=CC(=O)[C@]6(C)[C@H]4CC[C@@]31C)C2 (some centres undefined) ?
A: inactive

Q: So what was the verdict on CN(C)c1ccc(/N=C2/C=CC(=C(C#N)C#N)c3ccccc32)cc1 in this test?
A: active

Q: Lab log entry: CCN(CC)Cc1nc2sc3c(c2c(=O)n1-c1ccccc1)CCCC3 — outcome as called in the assay?
A: inactive

====

Test system: Malme-3M
Assay: NCI tumour cell line growth inhibition, 48 h
Activity calls are given as the source filed them. No stated cut-off is given here; in the data, active = GI50 up to about 1.1 µM and inactive = higher.
Your reply should match one of these outcome classes. true (active), false (inactive)

Would you please look over these solved cases?
Q: Entry O=c1[nH]cnc2cccc(Cl)c12 : call = ?
A: false

Q: Any idea what this test logged for COC1(OC)CC2C(=O)N(Cc3ccccc3)C1C(S(=O)(=O)c1ccccc1)C2C(C)S(=O)(=O)c1ccccc1 (stereo not given) ?
A: false

Q: Any idea what this test logged for CN(C)CC1CCC/C(=C\c2ccc(OC(=O)/C=C/c3ccc(Cl)cc3)cc2)C1=O (stereo not given) ?
A: false

Q: Please indicate how the test categorized O=c1[nH]cc(/N=C/c2cc(Cl)ccc2O)c(=O)[nH]1 .
A: false

Q: How did this test come out for CC(=O)Oc1c(-c2ccccc2)oc2ccccc12 ?
A: false

---
Q: So what was the verdict on Cc1ccc(OCC2OC(n3cnc4nc(Cl)nc(Cl)c43)CC2Oc2ccc(C)cc2)cc1 (stereo not given) in this test?
A: false

Q: Recorded test outcome, item CC(=O)OC1CC[C@@]2(C)C(CC(OC3OC(CO)C(O)C(O)C3O)[C@]3(C)C2CCC24CC23CC[C@H]4C(C)CC(O)[C@@H](O)C(C)(C)O)C1(C)C (stereo not given in full)
A: false

Q: State the result this test recorded for COc1cc(C)c(/C=C/C(=O)N2C(=O)OC[C@@H]2c2ccccc2)c(C)c1 .
A: false

====

// reported GI50 per item
System: UACC-257
Experiment: NCI tumour cell line growth inhibition, 48 h
Active and inactive are the calls of the source. Cut-off read from the data, not from the text of the source: active = GI50 up to about 1.1 µM and inactive = higher.

A selection of reference data follows.
Q: Report GI50, nothing else, for this compound: CC1C(=O)OC2CC[N+]3([O-])CC=C(COC(=O)C(C)(O)C1(C)O)C23 (configuration not stated)
A: > 100 µM (inactive)

Q: Hello, please tell me recorded GI50 for this one: CCCCn1c(O)nc2c(N)ncnc21
A: > 100 µM (inactive)

Q: Quick one: give measured GI50 for CC(C)(Oc1ccc(C2C[C@H]2Cl)cc1)C(=O)O (some centres not stated)
A: > 100 µM (inactive)

---
Q: Give the measured GI50 for CC1(CCCC2(C)CCNC2=O)OCCO1 (configuration not stated)
A: > 10 µM (inactive)

Q: Provide only the value of recorded GI50 for CC(=O)Oc1ccc2c(c1)CC[C@@H]1C2CC[C@]2(C)C(=O)NC(=O)CC12 (some centres not stated)
A: > 100 µM (inactive)

Q: Provide GI50 value for the following compound: NC(=O)c1ncn(C2C=CC(CP(=O)(O)O)C2)c1N (configuration not stated)
A: > 100 µM (inactive)

Q: Indicate the recorded GI50 value for this compound: COc1ccc(Cc2nc3cc([N+](=O)[O-])ccc3n2C[C@@H]2CCCN3CCCCC23)cc1 (some centres not stated)
A: 15.8 µM (inactive)

Q: Return value of GI50 for input CC(=O)Nc1ccc(S(=O)(=O)Nc2nc(-c3ccc(Cl)cc3)cc(N3N=C(c4ccc(Br)cc4)CC3c3ccccc3)n2)cc1 (configuration not stated) , no commentary.
A: 17.5 µM (inactive)

====

System: OVCAR-4
Assay: NCI tumour cell line growth inhibition, 48 h
The source made the active and inactive calls. Rule as the data show it: active = GI50 up to about 1.1 µM and inactive = higher. Where a SMILES comes first, the peptide text is derived from it. [ ]: non-standard residue; d: D form. The star is where a group is joined. NMeAc5c = CNC1(C(=O)O)CCCC1; Boc = CC(C)(C)OC(=O)*; OBn = c1ccc(CO*)cc1
Entry note: the call must match one of active, inactive

Q: Which outcome was assigned to Nc1ccc(-c2cc(C(=O)Nc3nccs3)nc(S)n2)cc1 in this test?
A: inactive

***
Q: Fill in: this test's call for CN(C(=O)C(Cc1ccccc1)NC(=O)OC(C)(C)C)C1(C(=O)NC(Cc2ccccc2)C(=O)OCc2ccccc2)CCCC1 (stereo not drawn) (Boc-Phe-[NMeAc5c]-Phe-OBn; configuration not given here) is ___
A: inactive

Q: Any idea what this test logged for O=C1C=CC(S(=O)(=O)C2=C/C(=C/Nc3ccc(Cl)cc3)C(=O)C=C2)=C/C1=C/Nc1ccc(Cl)cc1 ?
A: inactive

Q: Write down the call the test reported for this compound. Item: Cc1ccsc1/C=N/NC1=NCCN1
A: inactive

Q: // return assay outcome for N#CC1=C(c2ccccc2)NNC(c2ccc(Cl)cc2)CC1=O (stereo not given)
A: inactive

Q: So what was the verdict on O=C1C(Cl)C(c2cc(Br)ccc2O)N1n1cnc2ccccc2c1=O (stereo not given) in this test?
A: inactive

Q: Recorded call for CC1(CCCC2(C)CCNC2=O)OCCO1 (stereo not given) ?
A: inactive

Q: Per the assay record, what outcome was assigned to C=CCSC1=N/C(=C\c2ccc(OC)cc2)C(=O)N1CC=C ?
A: inactive

Q: Can you look up the reported call for Fc1ccc(C2SCc3nc4ccccc4n32)c(F)c1 (stereo not given) for me?
A: inactive

Q: Call for entry CCN(CC)Cc1nc2sc3c(c2c(=O)n1-c1ccccc1)CCCC3 :
A: inactive

Q: Per the assay record, what outcome was assigned to C=CCSc1nc2c(N)ncnc2n1C1OC(CO)C(O)C1O (stereo not given) ?
A: inactive

Q: Per the records of this test, what outcome belongs to Cc1ccc2c(c1)CC1(C2=O)[C@H](c2ccccc2)C2C(=O)c3ccc(C)cc3C2[C@H]1c1ccccc1 (stereo not given in full) ?
A: inactive

Q: Any idea what this test logged for ClC(Cl)(Cl)C(N1CCN(c2ccccc2)CC1)N1CCN(c2ccccc2)CC1 ?
A: inactive

====

System: SNB-19
Assay: NCI tumour cell line growth inhibition, 48 h
Activity calls are given as the source filed them. Cut-off read from the data, not from the text of the source: active = GI50 up to about 1.1 µM and inactive = higher.
Outcome (select one): active, inactive

Solved cases (2 shown):
Q: Given CCCCCCCCCCCCOc1ccc(/C=C/C2=[N+](CCCl)CCO2)cc1 , state the outcome it received in this test.
A: inactive

Q: How did this test come out for CN(C)CCN1C(=O)CC[C@@]2(C)C1=CC[C@@H]1[C@@H]2CC[C@@]2(C)[C@H]1CC[C@]2(C)O ?
A: inactive

For the next question, use this molecule.
Q: Just curious, what result did CCc1n[nH]c(=O)n1CCO get here?
A: inactive

====

Test system: CAKI-1
Assay: NCI tumour cell line growth inhibition, 48 h
The source made the active and inactive calls. Cut-off read from the data, not from the text of the source: active = GI50 up to about 1.1 µM and inactive = higher.
The reply should name one outcome from T (active), F (inactive)

Here's what some known entries look like.
Q: What did the test return for CC(=O)OC1CC[C@@]2(C)C(CC(OC3OC(CO)C(O)C(O)C3O)[C@]3(C)C2CCC24CC23CC[C@H]4C(C)CC(O)[C@@H](O)C(C)(C)O)C1(C)C (stereo partly drawn) ?
A: F

Q: // outcome(item) with item = COC(=NCCC1=CCCCC1)OC
A: F

Q: Could you check what this test reported for Cc1ccc(S(=O)(=O)NC(C)C(=O)O)cc1 (stereo not drawn) ?
A: F

Q: Please share the test call associated with CCOc1ccccc1NC(=O)CCc1nnc2s/c(=C\CCc3ccccc3)c(=O)n12 .
A: F

Q: How was CC1(C)CCCC(C)(C2CCC3(C)C2C(O)CC2C4(C)CCC(O)C(C)(C)C4CCC23C)O1 (stereo not drawn) classified in this test?
A: F

New cases:
Q: Identify the outcome logged in this assay for the compound shown: CN1CC(c2ccccc2)=CC2=C1C=CC(=N)/C2=N\N
A: F

Q: Would you mind telling me which call this test gave CCSc1c(C)c2c(n(Cc3ccc(OC)cc3)c1=O)Cc1ccccc1C2 ?
A: F

Where these numbers come from: ChEMBL document CHEMBL1201862
